# Tested on: mRNA expressed from the genes (A) to (D) in rat liver
# test-summary: Behavior of genes (mRNA expression level, oligo-DNA microarray) in rat liver after 28-day oral administration
# Type: in vivo
# experimental-context: gene group (C), Unigene No. Rn.118529
quantity-kind: Behavior of gene caused by administration of chemical substance, Gene No. 4973

Here's what some known entries look like.
INSERT INTO results (compound, experimental_result) VALUES
  ('CC(=O)Oc1ccccc1C(=O)O [TS071, Aspirin]', '−'),
  ('O=C1CCCCCN1 [TS074, Caprolactam]', '+'),
  ('O=[N+]([O-])c1cccc2ccccc12 [TS083, 1-Nitronaphthalene]', '+'),
  ('O=C([O-])c1ccccc1.[Na+] [TS084, Sodium benzoate]', '+'),
  ('Nc1ccc(N)c(Cl)c1.O=S(=O)(O)O [TS058, 2-Chloro-p-phenylenediamine SO4]', '−');

We next turn to a different compound, shown below.
Lab note: need Behavior of gene caused by administration of chemical substance, Gene No. 4973 for Cl.ClCc1ccccn1 [TS033, 2-Chloromethylpyridine HCl] on mRNA expressed from the genes (A) to (D) in rat liver, anyone have it?
−

Where do the numbers come from? From patent US20110039721A1.
